Subject of test: SMARCA4-HiBiT HeLa cells (protein which is expressed from the SMARCA4 gene) (Homo sapiens)
Construct: protein which is expressed from the SMARCA2 and SMARCA4 genes; host or cells: HeLa (SMARCA4-HiBiT engineered line)
Test name: SMARCA4 degradation assay (HiBiT-fusion HeLa cell line, 24 h, luminescence)
Type: cell-based
Protocol conditions: @ 1 μM
Measured quantity: inhibition at 1 µM

INSERT INTO assay_data (molecule, subject_of_test, measured_quantity, result_value) VALUES
  ('C[C@@H]1CCN(c2cc(-c3ccccc3O)nnc2N)CCN1c1ccnc(C#CCNC(=O)OC(C)(C)C)n1', 'SMARCA4-HiBiT HeLa cells (protein which is expressed from the SMARCA4 gene) (Homo sapiens)', 'inhibition at 1 µM', '30 to 70%'),
  ('C[C@@H]1CCC(=O)N1CC#Cc1ncc(F)c(N2CCN(c3cc(-c4ccccc4O)nnc3N)CC[C@H]2C)n1', 'SMARCA4-HiBiT HeLa cells (protein which is expressed from the SMARCA4 gene) (Homo sapiens)', 'inhibition at 1 µM', '< 30%'),
  ('CC(C)(O)C#Cc1nccc(N2CCCN(c3cc(-c4ccccc4O)nnc3N)CC2)n1', 'SMARCA4-HiBiT HeLa cells (protein which is expressed from the SMARCA4 gene) (Homo sapiens)', 'inhibition at 1 µM', '< 30%'),
  ('CN1CCCC1C#Cc1nccc(N2CCCN(c3cc(-c4ccccc4O)nnc3N)CC2)n1 (stereo not shown)', 'SMARCA4-HiBiT HeLa cells (protein which is expressed from the SMARCA4 gene) (Homo sapiens)', 'inhibition at 1 µM', '> 70%'),
  ('Nc1nnc(-c2ccccc2O)cc1N1CCCN(c2ccnc(C#CCNC3CCOCC3)n2)CC1', 'SMARCA4-HiBiT HeLa cells (protein which is expressed from the SMARCA4 gene) (Homo sapiens)', 'inhibition at 1 µM', '30 to 70%'),
  ('C[C@H]1CN(c2ccnc(C#CCNC(=O)c3cc4ncccn4n3)n2)C[C@H](C)N1c1cc(-c2ccccc2O)nnc1N', 'SMARCA4-HiBiT HeLa cells (protein which is expressed from the SMARCA4 gene) (Homo sapiens)', 'inhibition at 1 µM', '< 30%'),
  ('CCN(CC)CC#Cc1nccc(N2CCN(c3cc(-c4ccccc4O)nnc3N)CC[C@H]2C)n1', 'SMARCA4-HiBiT HeLa cells (protein which is expressed from the SMARCA4 gene) (Homo sapiens)', 'inhibition at 1 µM', '30 to 70%');

###

Subject of test: SMARCA4-HiBiT HeLa cells (protein which is expressed from the SMARCA4 gene) (Homo sapiens, UniProt P51532)
Construct: protein which is expressed from the SMARCA2 and SMARCA4 genes; host or cells: HeLa (SMARCA4-HiBiT engineered line)
Sequence (P51532 whole entry): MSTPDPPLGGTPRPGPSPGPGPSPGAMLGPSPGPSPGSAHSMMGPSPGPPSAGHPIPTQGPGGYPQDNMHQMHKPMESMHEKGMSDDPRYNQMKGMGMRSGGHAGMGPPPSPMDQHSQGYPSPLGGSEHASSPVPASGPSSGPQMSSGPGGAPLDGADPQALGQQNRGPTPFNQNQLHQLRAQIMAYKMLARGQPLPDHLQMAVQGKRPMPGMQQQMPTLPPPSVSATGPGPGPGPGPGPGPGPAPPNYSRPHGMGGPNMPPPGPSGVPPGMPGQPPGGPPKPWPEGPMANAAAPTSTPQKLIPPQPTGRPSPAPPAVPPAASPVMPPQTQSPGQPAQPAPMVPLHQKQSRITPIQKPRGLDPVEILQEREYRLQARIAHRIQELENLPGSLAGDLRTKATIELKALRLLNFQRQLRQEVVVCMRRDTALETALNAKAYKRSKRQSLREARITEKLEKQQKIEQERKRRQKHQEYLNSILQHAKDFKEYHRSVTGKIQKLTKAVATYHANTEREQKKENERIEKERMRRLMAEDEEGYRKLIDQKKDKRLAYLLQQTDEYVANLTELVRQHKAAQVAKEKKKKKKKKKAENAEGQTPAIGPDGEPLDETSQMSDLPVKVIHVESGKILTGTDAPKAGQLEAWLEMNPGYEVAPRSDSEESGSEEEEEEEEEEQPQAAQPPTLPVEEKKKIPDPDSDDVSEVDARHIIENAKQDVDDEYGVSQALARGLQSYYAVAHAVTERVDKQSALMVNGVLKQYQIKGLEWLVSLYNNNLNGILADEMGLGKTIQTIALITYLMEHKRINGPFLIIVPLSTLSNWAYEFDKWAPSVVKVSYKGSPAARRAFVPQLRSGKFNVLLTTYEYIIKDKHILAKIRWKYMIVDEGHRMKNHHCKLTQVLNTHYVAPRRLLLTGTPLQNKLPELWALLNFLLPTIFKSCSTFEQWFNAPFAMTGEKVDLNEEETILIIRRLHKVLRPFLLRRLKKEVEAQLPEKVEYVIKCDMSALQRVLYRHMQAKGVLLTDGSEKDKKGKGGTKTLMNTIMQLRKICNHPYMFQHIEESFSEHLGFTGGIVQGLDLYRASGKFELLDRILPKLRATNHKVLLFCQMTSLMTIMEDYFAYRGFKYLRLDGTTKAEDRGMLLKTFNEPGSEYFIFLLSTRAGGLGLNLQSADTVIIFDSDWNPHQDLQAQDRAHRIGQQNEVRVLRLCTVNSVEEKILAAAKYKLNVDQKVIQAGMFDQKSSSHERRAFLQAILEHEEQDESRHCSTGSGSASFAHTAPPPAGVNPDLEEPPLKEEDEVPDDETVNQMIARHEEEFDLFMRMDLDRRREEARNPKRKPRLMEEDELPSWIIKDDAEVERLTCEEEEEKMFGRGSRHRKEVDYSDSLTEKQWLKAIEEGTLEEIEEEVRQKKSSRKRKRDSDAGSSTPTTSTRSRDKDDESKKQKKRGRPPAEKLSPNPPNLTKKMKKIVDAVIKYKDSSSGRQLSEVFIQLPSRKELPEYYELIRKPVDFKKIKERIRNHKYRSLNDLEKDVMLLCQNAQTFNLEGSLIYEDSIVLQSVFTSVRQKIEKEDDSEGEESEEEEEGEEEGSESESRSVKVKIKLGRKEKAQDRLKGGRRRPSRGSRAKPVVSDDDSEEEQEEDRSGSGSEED
Test name: SMARCA4 degradation assay (HiBiT-fusion HeLa cell line, 24 h, luminescence)
Assay type: cell-based
Measured quantity: DC50

INSERT INTO assay_data (compound, measured_quantity, result_value) VALUES
  ('CC(C)(C)OC(=O)NCC#Cc1nccc(N2CC3CC(Oc4cc(-c5ccccc5O)nnc4N)CC3C2)n1 (stereo not drawn) [Compound P-221]', 'DC50', '50 to 500 nM'),
  ('COCC#Cc1nccc(N2CCCN(c3cc(-c4ccccc4O)nnc3N)CC2)n1 [Compound P-342]', 'DC50', '50 to 500 nM'),
  ('C[C@@H]1CCN(c2cc(-c3ccccc3O)nnc2N)CCN1c1ccnc(C#CCN2CCCC2=O)c1 [Compound P-390]', 'DC50', '50 to 500 nM'),
  ('Nc1nnc(-c2ccccc2O)cc1N1CCN(c2ccnc(C#CCNC(=O)c3cccnn3)n2)CC1 [Compound P-5]', 'DC50', '50 to 500 nM'),
  ('C[C@@H]1CCN(c2cc(-c3ccccc3O)nnc2N)CCN1c1ccnc(C#CCN2C3CCCC2CC3)n1 [Compound P-228]', 'DC50', '< 50 nM'),
  ('CC(C)(O)C#Cc1nccc(N2CCCN(c3cc(-c4ccccc4O)nnc3N)CC2)n1 [Compound P-341]', 'DC50', '500 to 5000 nM'),
  ('C[C@H]1CCN(c2cc(-c3ccccc3O)nnc2N)CCN1c1ccnc(C#CCNC(=O)c2cc3ncccn3n2)n1 [Compound P-102]', 'DC50', '< 50 nM'),
  ('Nc1nnc(-c2ccccc2O)cc1N1CCCN(c2ccnc(C#CCN3CCS(=O)(=O)CC3)n2)CC1 [Compound P-137]', 'DC50', '500 to 5000 nM'),
  ('Nc1nnc(-c2ccccc2O)cc1N1CC2CN(c3ccnc(C#CCNC(=O)c4cc5ncccn5n4)n3)CC21 (stereo not drawn) [Compound P-45]', 'DC50', '500 to 5000 nM'),
  ('Nc1nnc(-c2ccccc2O)cc1N1CCCN(c2ccnc(C#CCN3CCCCC3)n2)CC1 [Compound P-373]', 'DC50', '50 to 500 nM'),
  ('C[C@@H]1CCN(c2cc(-c3ccccc3O)nnc2N)CCN1c1ccnc(C#CCN2CC(F)(F)C3(CCC3)C2)n1 [Compound P-209]', 'DC50', '50 to 500 nM'),
  ('C[C@@H]1CCN(c2cc(-c3ccccc3O)nnc2N)CCN1c1ccnc(C#CCn2cccc2)n1 [Compound P-191]', 'DC50', '50 to 500 nM'),
  ('Nc1nnc(-c2ccccc2O)cc1N1CC[C@@H]2[C@H]1CN2c1ccnc(C#CCNC(=O)c2cc3ncccn3n2)n1 [Compound P-47]', 'DC50', '500 to 5000 nM'),
  ('Cn1ccc(NCC#Cc2nccc(N3CCCN(c4cc(-c5ccccc5O)nnc4N)CC3)n2)n1 [Compound P-21]', 'DC50', '50 to 500 nM'),
  ('CN(CC#Cc1nccc(N2CCCN(c3cc(-c4ccccc4O)nnc3N)CC2)n1)C(=O)c1cc2ncccn2n1 [Compound P-24]', 'DC50', '< 50 nM');
